Source listed as the supplement of paper PMC7877785.

assay: self-splicing fitness, log relative to wild type (ln ratio); higher = more splicing; Tetrahymena group I intron in knt gene, E. coli kanamycin selection, DiMSum; sequences stand for … in CUCUCU…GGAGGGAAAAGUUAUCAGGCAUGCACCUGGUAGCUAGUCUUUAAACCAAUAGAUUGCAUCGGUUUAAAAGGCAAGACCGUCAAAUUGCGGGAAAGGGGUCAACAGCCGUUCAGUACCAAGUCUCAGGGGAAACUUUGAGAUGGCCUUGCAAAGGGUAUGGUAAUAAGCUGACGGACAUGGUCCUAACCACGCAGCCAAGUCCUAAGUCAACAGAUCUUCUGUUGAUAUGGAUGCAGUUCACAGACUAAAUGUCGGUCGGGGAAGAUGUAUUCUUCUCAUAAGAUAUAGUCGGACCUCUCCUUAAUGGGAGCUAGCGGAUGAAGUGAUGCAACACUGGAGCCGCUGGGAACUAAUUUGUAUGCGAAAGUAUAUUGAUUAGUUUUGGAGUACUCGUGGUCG; conditions: 30 °C;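 note: selection with 25 µg/mL kanamycin versus none on LB agar overnight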
Provide the reported self-splicing fitness (ln) of each item.
Give your answer as a number; write no unit.

Returns the measured self-splicing fitness (ln) for the input sequence. Input: `UCCCAGCAAUAUUACGACGG`
-2.95

Returns the measured self-splicing fitness (ln) for the input sequence. Input: `UAAGAGCAAUAUUACGGUGA`
-3.83

Returns the measured self-splicing fitness (ln) for the input sequence. Input: `UUGAAGCAAUAUUACGCAGC`
-3.74

Returns the measured self-splicing fitness (ln) for the input sequence. Input: `UGUAAGCAAUAUUACGAUGU`
-3.26

Returns the measured self-splicing fitness (ln) for the input sequence. Input: `UGGUAGCAAUAUUACGUAGA`
-2.54

Returns the measured self-splicing fitness (ln) for the input sequence. Input: `UUACAGCAAUAUUACGGUUU`
-0.925

Returns the measured self-splicing fitness (ln) for the input sequence. Input: `UGUAAGCAAUAUUACGACGC`
-2.61
